# assay_name: Phase I trial: clinical pharmacokinetics in plasma
# Assay type: in vivo, human
# study_conditions: human, plasma, oral, 30 mg, Multiple doses day 28, 30 mg, n=1
recorded_metric: AUC(0-inf)

Exercise: Report AUC(0-inf), nothing else, for this molecule: Cc1c(C(=O)Nc2ccc(Oc3ccnc4cc(OCC(C)(C)O)ccc34)c(F)c2)c(=O)n(-c2ccccc2)n1C
Solution: 84100 ng·h/mL

====

# assay_name: Phase I trial: clinical pharmacokinetics in plasma
# Type: in vivo, human
# study_conditions: human, plasma, oral, 15 mg, Multiple doses day 28, 15 mg, n=1
recorded_metric: Cmax (ng/mL)
Report the figure in ng/mL without appending any unit label.

Exercise: Read off the recorded Cmax for Cc1c(C(=O)Nc2ccc(Oc3ccnc4cc(OCC(C)(C)O)ccc34)c(F)c2)c(=O)n(-c2ccccc2)n1C
Solution: 598

====

# subject_of_test: Yes (Homo sapiens, UniProt P07947)
# Sequence (P07947 whole entry): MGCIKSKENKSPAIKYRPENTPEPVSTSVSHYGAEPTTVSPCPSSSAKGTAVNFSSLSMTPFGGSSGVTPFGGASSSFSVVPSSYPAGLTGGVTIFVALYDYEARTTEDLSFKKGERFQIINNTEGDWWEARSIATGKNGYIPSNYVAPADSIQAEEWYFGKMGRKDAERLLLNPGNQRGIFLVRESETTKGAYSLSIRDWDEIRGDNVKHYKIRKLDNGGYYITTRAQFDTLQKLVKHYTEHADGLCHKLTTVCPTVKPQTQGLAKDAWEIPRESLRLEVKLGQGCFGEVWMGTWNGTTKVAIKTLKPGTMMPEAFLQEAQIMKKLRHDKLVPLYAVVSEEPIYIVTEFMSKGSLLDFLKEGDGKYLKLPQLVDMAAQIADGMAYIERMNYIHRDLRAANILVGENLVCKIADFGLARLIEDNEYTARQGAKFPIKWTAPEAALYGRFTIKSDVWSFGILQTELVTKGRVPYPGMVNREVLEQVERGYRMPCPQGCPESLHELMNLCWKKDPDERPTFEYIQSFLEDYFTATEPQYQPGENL
recorded_metric: IC50

Exercise: Quote IC50 reported for Cc1c(C(=O)Nc2ccc(Oc3ccnc4cc(OCC(C)(C)O)ccc34)c(F)c2)c(=O)n(-c2ccccc2)n1C [CT053] please.
Solution: 110 nM

====

# assay_name: Phase I trial: clinical pharmacokinetics in plasma
# Assay type: in vivo, human
# study_conditions: human, plasma, oral, 15 mg, Multiple doses day 28, 15 mg, n=1; read-out: AUC0-168
# Description: A clinical pharmacokinetic study of CT053PTSA was performed for both single doses and multiple doses. […] Statistical analysis of CT053-treated tumors versus vehicle-treated tumors or versus nontreated tumors was performed by repeated-measures ANOVA. The data from the tumor xenograft models were expressed as the means ± standard error of the mean (SEM) and were plotted as a function of time. […]
recorded_metric: AUC(0-t) (ng·h/mL)
I only need the number, in ng·h/mL, no unit after it.

Exercise: Quick one: give measured AUC(0-t) for Cc1c(C(=O)Nc2ccc(Oc3ccnc4cc(OCC(C)(C)O)ccc34)c(F)c2)c(=O)n(-c2ccccc2)n1C [CT053PTSA]
Solution: 23700

====

# assay_name: Phase I trial: clinical pharmacokinetics in plasma
# Type: in vivo, human
# study_conditions: human, plasma, oral, 150 mg, Multiple doses day 28, 150 mg, n=1; read-out: T1/2 (converted)
recorded_metric: half-life (h)
Give the value in h but do not write h after it.

Exercise: Give the reported value of half-life for this record: Cc1c(C(=O)Nc2ccc(Oc3ccnc4cc(OCC(C)(C)O)ccc34)c(F)c2)c(=O)n(-c2ccccc2)n1C [CT053PTSA]
Solution: 13.8

====

# subject_of_test: VEGFR2 (Homo sapiens, UniProt P35968)
# Sequence (P35968 20-1356): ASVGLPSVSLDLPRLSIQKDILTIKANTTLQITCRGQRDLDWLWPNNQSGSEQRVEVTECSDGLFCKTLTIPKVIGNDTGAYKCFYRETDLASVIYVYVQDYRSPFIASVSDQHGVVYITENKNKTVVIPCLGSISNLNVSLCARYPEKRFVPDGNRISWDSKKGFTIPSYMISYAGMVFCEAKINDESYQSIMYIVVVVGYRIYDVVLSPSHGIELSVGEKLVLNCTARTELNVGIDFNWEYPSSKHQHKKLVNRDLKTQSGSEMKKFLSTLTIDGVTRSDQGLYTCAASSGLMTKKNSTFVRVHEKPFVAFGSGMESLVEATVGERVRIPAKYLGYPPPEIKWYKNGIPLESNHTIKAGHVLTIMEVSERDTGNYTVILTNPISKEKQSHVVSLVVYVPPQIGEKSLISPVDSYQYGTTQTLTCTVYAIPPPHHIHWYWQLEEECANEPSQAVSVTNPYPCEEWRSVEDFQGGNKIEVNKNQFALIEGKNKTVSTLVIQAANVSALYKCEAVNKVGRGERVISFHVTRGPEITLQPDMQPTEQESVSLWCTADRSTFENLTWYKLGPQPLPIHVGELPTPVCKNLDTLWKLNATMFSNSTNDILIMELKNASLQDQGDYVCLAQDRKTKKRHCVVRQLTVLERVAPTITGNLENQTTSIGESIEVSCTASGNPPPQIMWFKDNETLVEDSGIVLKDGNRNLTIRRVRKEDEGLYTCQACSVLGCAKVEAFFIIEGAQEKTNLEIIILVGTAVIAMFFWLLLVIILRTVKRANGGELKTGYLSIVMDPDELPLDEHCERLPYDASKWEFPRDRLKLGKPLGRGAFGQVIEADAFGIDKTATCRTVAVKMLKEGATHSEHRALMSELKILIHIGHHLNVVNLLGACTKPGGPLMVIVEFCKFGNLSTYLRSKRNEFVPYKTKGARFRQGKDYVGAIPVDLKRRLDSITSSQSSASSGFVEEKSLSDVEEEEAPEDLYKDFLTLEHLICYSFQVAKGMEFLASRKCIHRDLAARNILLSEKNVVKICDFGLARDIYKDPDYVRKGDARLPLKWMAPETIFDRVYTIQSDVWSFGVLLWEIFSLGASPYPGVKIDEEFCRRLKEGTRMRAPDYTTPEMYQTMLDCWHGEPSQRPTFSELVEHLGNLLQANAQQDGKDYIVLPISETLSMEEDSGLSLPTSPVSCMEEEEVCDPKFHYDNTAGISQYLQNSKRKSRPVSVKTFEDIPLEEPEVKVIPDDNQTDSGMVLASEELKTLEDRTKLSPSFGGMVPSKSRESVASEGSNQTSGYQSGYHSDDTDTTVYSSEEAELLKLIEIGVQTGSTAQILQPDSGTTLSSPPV
# assay_name: Kinase inhibition assay (LANCE or HTRF)
# Assay type: biochemical
# study_conditions: ATP at Km
recorded_metric: IC50 (nM)
Quick note: give the figure in nM, leave out the unit.

Exercise: Using the record for Cc1c(C(=O)Nc2ccc(Oc3ccnc4cc(OCC(C)(C)O)ccc34)c(F)c2)c(=O)n(-c2ccccc2)n1C [CT053] , state its measured IC50.
Solution: 46

====

# assay_name: Phase I trial: clinical pharmacokinetics in plasma
# Assay type: in vivo, human
# study_conditions: human, plasma, oral, 100 mg, Multiple doses day 28, 100 mg, n=5, Geometric Mean (CV%); read-out: Vz/F
recorded_metric: Vd/F (L)
A number alone suffices; assume L.

Exercise: Output Vd/F of Cc1c(C(=O)Nc2ccc(Oc3ccnc4cc(OCC(C)(C)O)ccc34)c(F)c2)c(=O)n(-c2ccccc2)n1C
Solution: 90.9
